- CONDITION SUMMARY: in 1,4-dioxane, 316.85 K
MEASURED ENDPOINT: solubility (mole fraction)

Documented solubility (mole fraction) of O=C(O)c1ccccc1O : 0.323

* * *

- CONDITION SUMMARY: in cyclopentyl methyl ether, 320.55 K
MEASURED ENDPOINT: solubility (mole fraction)
# respond with the number and nothing more

Value of measured solubility (mole fraction) for the entry CC(=O)Oc1ccccc1C(=O)O : 0.068

* * *

- CONDITION SUMMARY: in toluene, 312.55 K
MEASURED ENDPOINT: solubility (mole fraction)

Entry under test: c1ccc2nc3ccccc3nc2c1 . Its solubility (mole fraction) was 0.039

* * *

- CONDITION SUMMARY: in 1,4-dioxane, 311.55 K
MEASURED ENDPOINT: solubility (mole fraction)
Please give only the number in your answer, with no unit.

{"SMILES STR": "Nc1ccc(C(=O)O)cc1", "solubility (mole fraction)": 0.094}

# solubility (mole fraction) of NC(=O)c1cccnc1 = 0.029

* * *

- CONDITION SUMMARY: in 1,4-dioxane, 335.35 K
MEASURED ENDPOINT: solubility (mole fraction)
Lab note: write the figure by itself, no unit.

// solubility (mole fraction) lookup, compound = CC(=O)Nc1ccc(O)cc1 , result: 0.039

* * *

- CONDITION SUMMARY: in 1,4-dioxane, 321.45 K
MEASURED ENDPOINT: solubility (mole fraction)
Give the figure only, with no unit attached.

get_value(item= O=C(O)c1cccc(O)c1 , readout=solubility (mole fraction)) returns 0.219

* * *

- CONDITION SUMMARY: in cyclopentyl methyl ether, 333.05 K
MEASURED ENDPOINT: solubility (mole fraction)
The answer should be a number; do not append a unit.

Summary for this molecule, O=C(O)c1ccccc1O : solubility (mole fraction) is 0.289

* * *

- CONDITION SUMMARY: in toluene, 327.75 K
MEASURED ENDPOINT: solubility (mole fraction)
Please respond with just the number, no unit label.

Input O=C(Oc1ccccc1C(=O)O)c1ccccc1O . Output solubility (mole fraction): 0.016

* * *

- CONDITION SUMMARY: in 1,4-dioxane, 312.95 K
MEASURED ENDPOINT: solubility (mole fraction)

In plain terms, O=C(O)c1cccc(O)c1 has a documented solubility (mole fraction) of 0.204

* * *

- CONDITION SUMMARY: in cyclopentyl methyl ether, 315.15 K
MEASURED ENDPOINT: solubility (mole fraction)
Keep it simple and answer with nothing but the number.

Lab note: measured solubility (mole fraction) of NC(=O)N1c2ccccc2C=Cc2ccccc21 was 0.002

* * *

- CONDITION SUMMARY: in toluene, 326.65 K
MEASURED ENDPOINT: solubility (mole fraction)
I only need the number, thanks.

Looking up CC(=O)Oc1ccccc1C(=O)O , I see its solubility (mole fraction) listed as 0.01

* * *

- CONDITION SUMMARY: in toluene, 314.15 K
MEASURED ENDPOINT: solubility (mole fraction)
Reply with just the number.

Entry O=C(O)c1ccccc1O — recorded solubility (mole fraction) = 0.011

* * *

- CONDITION SUMMARY: in toluene, 301.85 K
MEASURED ENDPOINT: solubility (mole fraction)

Sample NC(=O)N1c2ccccc2C=Cc2ccccc21 ; solubility (mole fraction) observed: 0.001

* * *

- CONDITION SUMMARY: in 1,4-dioxane, 309.15 K
MEASURED ENDPOINT: solubility (mole fraction)

# solubility (mole fraction) (molecule: NC(=O)c1ccncc1 ) is 0.02

* * *

- CONDITION SUMMARY: in 1,4-dioxane, 304.65 K
MEASURED ENDPOINT: solubility (mole fraction)
Please state the value as a number alone, without comment.

solubility (mole fraction) reported for this molecule Nc1ccc(C(=O)O)cc1 : 0.08

* * *

- CONDITION SUMMARY: in toluene, 333.45 K
MEASURED ENDPOINT: solubility (mole fraction)
The answer should be written as a number, with no unit following it.

Memo: O=C(Oc1ccccc1C(=O)O)c1ccccc1O , reported solubility (mole fraction): 0.019

* * *

Listed compounds paired with reported solubility (mole fraction)
- CONDITION SUMMARY: in 1,4-dioxane, 310.85 K
Keep the answer to the number alone.

{"SMILES STR": "O=C(O)c1cccc(O)c1", "solubility (mole fraction)": 0.197}

Memo: O=C(O)c1ccc([N+](=O)[O-])cc1 , reported solubility (mole fraction): 0.062

* * *

- CONDITION SUMMARY: in toluene, 326.85 K
MEASURED ENDPOINT: solubility (mole fraction)
// keep it numeric: no unit symbol after the value

For O=C(O)c1ccccc1O the compound record lists solubility (mole fraction) as 0.019

* * *

- CONDITION SUMMARY: in 1,4-dioxane, 325.35 K
MEASURED ENDPOINT: solubility (mole fraction)
Keep the answer to the number alone.

Record summary for O=C(O)c1cccc(O)c1 : reported solubility (mole fraction) = 0.227

* * *

- CONDITION SUMMARY: in 1,4-dioxane, 308.35 K
MEASURED ENDPOINT: solubility (mole fraction)
// return a plain number; no unit text

Kindly note the recorded solubility (mole fraction) for Nc1ccccc1C(=O)O , which is 0.287

* * *

- CONDITION SUMMARY: in cyclopentyl methyl ether, 316.35 K
MEASURED ENDPOINT: solubility (mole fraction)
In your answer, state the number alone without any accompanying words.

Entry CC(=O)Oc1ccccc1C(=O)O ; solubility (mole fraction) = 0.059

* * *

- CONDITION SUMMARY: in 1,4-dioxane, 336.95 K
MEASURED ENDPOINT: solubility (mole fraction)
Write the value as a bare number.

The measured solubility (mole fraction) associated with CC(=O)Nc1ccc(O)cc1 reads 0.042

* * *

- CONDITION SUMMARY: in cyclopentyl methyl ether, 314.05 K
MEASURED ENDPOINT: solubility (mole fraction)
Could you respond with only the numeric value?

Input c1ccc2nc3ccccc3nc2c1 . Output solubility (mole fraction): 0.033

* * *

- CONDITION SUMMARY: in 1,4-dioxane, 313.55 K
MEASURED ENDPOINT: solubility (mole fraction)
Quick one: just the number, no unit, thanks!

// c1ccc2nc3ccccc3nc2c1 : solubility (mole fraction) value = 0.043

* * *

- CONDITION SUMMARY: in 1,4-dioxane, 303.15 K
MEASURED ENDPOINT: solubility (mole fraction)
Keep it simple and answer with nothing but the number.

get_value(item= NC(=O)c1ccncc1 , readout=solubility (mole fraction)) returns 0.016

* * *

- CONDITION SUMMARY: in 1,4-dioxane, 306.25 K
MEASURED ENDPOINT: solubility (mole fraction)
Answer as a number with no unit attached.

For this compound ( O=C(O)c1ccc([N+](=O)[O-])cc1 ), measured solubility (mole fraction) is 0.053

* * *

- CONDITION SUMMARY: in 1,4-dioxane, 307.25 K
MEASURED ENDPOINT: solubility (mole fraction)
Please reply with the number alone, leaving off any unit.

NC(=O)c1cccnc1 yielded solubility (mole fraction) of 0.025

* * *

Entries annotated with measured solubility (mole fraction)
- CONDITION SUMMARY: in 1,4-dioxane, 332.55 K
Give your answer as a number; write no unit.

{"SMILES STR": "CC(=O)Oc1ccccc1C(=O)O", "MEASURED ENDPOINT": "solubility (mole fraction)", "QUANTITATIVE READOUT": 0.258}

Let us move to another entry and its solubility (mole fraction).
Entry under test: O=C(Oc1ccccc1C(=O)O)c1ccccc1O . Its solubility (mole fraction) was 0.284

* * *

- CONDITION SUMMARY: in cyclopentyl methyl ether, 308.45 K
MEASURED ENDPOINT: solubility (mole fraction)
// return a plain number; no unit text

Form field solubility (mole fraction), entry Nc1ccccc1C(=O)O : 0.155

* * *

- CONDITION SUMMARY: in toluene, 328.75 K
MEASURED ENDPOINT: solubility (mole fraction)
The reply should be a number, written without any unit.

Briefly, solubility (mole fraction) measured for c1ccc2nc3ccccc3nc2c1 : 0.062

* * *

- CONDITION SUMMARY: in 1,4-dioxane, 330.05 K
MEASURED ENDPOINT: solubility (mole fraction)
Just the number, please, no unit after it.

# solubility (mole fraction) (molecule: CC(=O)Oc1ccccc1C(=O)O ) is 0.236

* * *

- CONDITION SUMMARY: in 1,4-dioxane, 324.85 K
Listing of recorded solubility (mole fraction) by entry.
Number, no unit, nothing else.

{"SMILES STR": "Nc1ccc(C(=O)O)cc1", "solubility (mole fraction)": 0.127}

Continue with the compound presented below.
# solubility (mole fraction) of Nc1ccccc1C(=O)O = 0.338

* * *

- CONDITION SUMMARY: in toluene, 305.65 K
MEASURED ENDPOINT: solubility (mole fraction)

Reported solubility (mole fraction) for O=C(O)c1ccccc1O was 0.007
